Field: z-score. Provide a value for each of the compounds that follow.
- experimentDescription: blockers of DNA damage checkpoint Chk1 activation – imaging, HeLa, hydroxyurea, phospho-Chk1 nuclear intensity, primary screen (AID 1187); also: test concentration not given here
- conditionsUsed: hydroxyurea-induced phospho-Chk1 immunofluorescence imaging, higher = more signal
Output spec: single numeric token, no unit.

[in] So what's the measured z-score for this one? C[C@@H]1NC(=O)[C@@H](Cc2ccccc2)NC(=O)[C@@]23C(=O)N[C@@H](Cc4ccccc4)C2[C@H](C)[C@@]2(C)O[C@H]2C3/C=C/C/C=C\CNC1=O (stereo partly specified)
[out] -0.328

[in] So what's the measured z-score for this one? `C=CCNC(=O)[C@@H]1[C@H]2C(=O)O[C@H](c3ccccc3)[C@H](c3ccccc3)N2[C@H](c2ccccc2OCCO)[C@@]12C(=O)Nc1ccc(C#CCC(C(=O)OC)C(=O)OC)cc12`
[out] -0.246

[in] So what's the measured z-score for this one? `CC(C)N1C(=O)c2ccccc2[C@@H](C(=O)NCCN2CCOCC2)[C@@H]1c1ccc(CO)cc1`
[out] -0.264

[in] So what's the measured z-score for this one? `C=CCNC(=O)[C@@H]1[C@H]2C(=O)O[C@H](c3ccccc3)[C@H](c3ccccc3)N2[C@H](c2ccc(O)cc2)[C@@]12C(=O)N(C(=O)OCCOC)c1ccc(C#CC3=CCCCC3)cc12`
[out] -1.01

[in] So what's the measured z-score for this one? CCCC=C(CCC)[C@@H](NS(=O)(=O)CC12CCC(CC1=O)C2(C)C)c1ccc(C(=O)OC)cc1 (stereo partly specified)
[out] -0.276

[in] So what's the measured z-score for this one? `COc1ccc([Si](C)(C)[C@H]2[C@H](CC(=O)N3Cc4ccccc4C[C@H]3CO)O[C@@]3(C(=O)N(Cc4ccc(N5CCOC5=O)cc4)c4ccccc43)[C@@H]2C)cc1`
[out] -0.869

Recorded values, source PubChem BioAssay.
